biological target: EPHB2 (UniProt P29323); assay: phosphorylation enrichment, bacterial display (enrichment ratio); higher = better substrate or ligand; peptides without Tyr show the background;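 also: 11-residue human phosphosite peptides and single-mutation variants displayed on the E. coli surface, counted by deep sequencing, each peptide's frequency after selection divided by its frequency in the unselected input library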;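 also: frequency after pTyr selection over input frequency; kinase dosed for 20-30% of maximal phosphorylation in three min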
Sequence (P29323 whole entry, looked up): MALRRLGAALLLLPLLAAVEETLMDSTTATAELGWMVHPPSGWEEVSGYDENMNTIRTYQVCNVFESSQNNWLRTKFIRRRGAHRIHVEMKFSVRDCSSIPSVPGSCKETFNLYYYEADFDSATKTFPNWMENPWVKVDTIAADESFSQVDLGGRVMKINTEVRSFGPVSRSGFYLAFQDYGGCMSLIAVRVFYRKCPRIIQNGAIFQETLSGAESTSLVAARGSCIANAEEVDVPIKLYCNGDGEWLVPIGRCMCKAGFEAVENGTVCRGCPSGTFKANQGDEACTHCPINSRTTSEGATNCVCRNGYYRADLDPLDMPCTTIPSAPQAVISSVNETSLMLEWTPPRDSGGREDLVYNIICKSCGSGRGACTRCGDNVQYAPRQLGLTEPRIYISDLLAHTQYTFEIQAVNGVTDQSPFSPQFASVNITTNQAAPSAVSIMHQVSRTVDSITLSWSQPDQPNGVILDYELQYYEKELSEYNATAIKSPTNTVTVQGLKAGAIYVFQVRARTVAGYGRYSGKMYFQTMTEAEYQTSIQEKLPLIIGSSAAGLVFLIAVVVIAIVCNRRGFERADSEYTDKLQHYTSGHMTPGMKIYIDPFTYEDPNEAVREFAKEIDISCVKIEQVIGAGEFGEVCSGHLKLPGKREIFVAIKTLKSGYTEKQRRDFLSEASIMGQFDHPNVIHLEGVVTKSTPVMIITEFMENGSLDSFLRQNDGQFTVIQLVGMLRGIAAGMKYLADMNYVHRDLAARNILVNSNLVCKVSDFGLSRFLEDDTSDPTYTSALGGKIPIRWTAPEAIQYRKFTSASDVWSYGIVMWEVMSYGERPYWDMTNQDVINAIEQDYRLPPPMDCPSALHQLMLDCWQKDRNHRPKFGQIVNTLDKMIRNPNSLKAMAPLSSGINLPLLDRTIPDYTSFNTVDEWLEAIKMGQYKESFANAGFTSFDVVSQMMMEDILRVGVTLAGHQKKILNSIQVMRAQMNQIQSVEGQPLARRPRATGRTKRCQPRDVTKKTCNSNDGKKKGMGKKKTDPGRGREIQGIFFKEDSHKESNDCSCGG
Items are presented alongside their recorded phosphorylation enrichment.
Respond using a number only.

Example results:
RESIDUE CODES: KEDPEYKKKFR [FAM161A_Y278_E273K]
phosphorylation enrichment: 0.589
--
RESIDUE CODES: DKNSSYFADWL [TUBB8_Y340]
phosphorylation enrichment: 0.53
--
RESIDUE CODES: RRIHSYRGHLW [VHL_Y112]
phosphorylation enrichment: 1.46
--
RESIDUE CODES: VEYAKYGSLQG [RET_Y809_R813Q]
phosphorylation enrichment: 0.438
--
RESIDUE CODES: KNCFKYYMSDD [ATRX_Y203]
phosphorylation enrichment: 0.701

input: Form field: reported phosphorylation enrichment of LTPVKYLLSAT [GSDMC_Y26]
output: 0.412

input: Recorded phosphorylation enrichment for VATRWYRSPEL [CDKL5_Y177] , please?
output: 0.516
